ASSAYED TARGET: Cytochrome P450 1B1 (Homo sapiens, UniProt Q16678)
Sequence (Q16678 whole entry): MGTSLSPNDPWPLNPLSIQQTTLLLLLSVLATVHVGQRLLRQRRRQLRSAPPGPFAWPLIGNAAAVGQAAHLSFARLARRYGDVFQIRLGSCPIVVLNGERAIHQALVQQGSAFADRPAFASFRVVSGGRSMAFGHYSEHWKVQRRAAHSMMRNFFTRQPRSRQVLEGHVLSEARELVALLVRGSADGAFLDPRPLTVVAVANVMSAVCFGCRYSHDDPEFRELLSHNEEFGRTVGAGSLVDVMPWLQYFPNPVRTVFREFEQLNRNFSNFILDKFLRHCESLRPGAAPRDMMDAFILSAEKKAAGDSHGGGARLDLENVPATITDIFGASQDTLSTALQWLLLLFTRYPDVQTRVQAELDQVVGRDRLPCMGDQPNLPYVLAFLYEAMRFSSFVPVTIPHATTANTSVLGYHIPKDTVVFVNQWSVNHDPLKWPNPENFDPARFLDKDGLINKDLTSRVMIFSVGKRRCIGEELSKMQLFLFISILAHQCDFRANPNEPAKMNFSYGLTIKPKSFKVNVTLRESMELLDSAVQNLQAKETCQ
ASSAY: Inhibition of human recombinant CYP1B1 using 7-ethoxyresorufin as substrate after 30 mins in presence of NADPH by EROD assay
OBSERVED PROPERTY: pIC50
Note on units: pIC50 is unitless, being -log10 of a concentration expressed in mol/L.

Illustrative cases are given below, each with its answer.
INPUT SMILES: C=C=C[C@H]1CC[C@H](c2cc(=O)c3ccc4ccccc4c3o2)CC1
ENDPOINT VALUE: 7.87
//
INPUT SMILES: O=c1cc([C@H]2CC[C@@H](S)CC2)oc2c1ccc1ccccc12
ENDPOINT VALUE: 7.41

Now let's try a different one.
Challenge: Need pIC50, item CC(=O)S[C@H]1CC[C@@H](c2cc(=O)c3ccc4ccccc4c3o2)CC1
Response given: 7.61

###

ASSAYED TARGET: CYP1A1 (Homo sapiens, UniProt P04798)
Sequence (P04798 whole entry): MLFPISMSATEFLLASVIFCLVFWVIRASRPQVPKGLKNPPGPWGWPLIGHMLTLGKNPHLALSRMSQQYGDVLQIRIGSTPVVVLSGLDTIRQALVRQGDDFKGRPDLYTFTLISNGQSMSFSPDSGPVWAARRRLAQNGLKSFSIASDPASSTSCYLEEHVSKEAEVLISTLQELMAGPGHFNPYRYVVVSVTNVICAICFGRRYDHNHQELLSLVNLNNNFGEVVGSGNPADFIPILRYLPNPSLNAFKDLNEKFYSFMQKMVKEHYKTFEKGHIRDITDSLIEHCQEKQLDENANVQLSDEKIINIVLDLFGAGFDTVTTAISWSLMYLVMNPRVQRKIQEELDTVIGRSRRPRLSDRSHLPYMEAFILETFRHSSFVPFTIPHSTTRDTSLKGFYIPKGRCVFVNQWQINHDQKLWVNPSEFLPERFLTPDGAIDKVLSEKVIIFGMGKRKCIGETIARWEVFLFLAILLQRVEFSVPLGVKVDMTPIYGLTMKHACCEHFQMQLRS
ASSAY: Inhibition of human recombinant CYP1A1 using 7-ethoxyresorufin as substrate assessed as percent enzyme activity at 1 uM after 15 mins in presence of NADPH by EROD assay relative to control
Type: ADME
Set-up: scale not given: the % may be the effect or the level left
STUDY CONDITIONS: recombinant CYP1A1, probe 7-ethoxyresorufin, read-out: Activity
Listed here: items and their measured activity at 0.25 h, 1 µM.
The answer is to be given in %; state only the numeric part.

MOLECULE: [N-]=[N+]=Nc1ccc(-c2cc(=O)c3ccc4ccccc4c3o2)cc1
ASSAYED TARGET: CYP1A1 (Homo sapiens, UniProt P04798)
OBSERVED PROPERTY: activity at 0.25 h, 1 µM
ENDPOINT VALUE: 2.3
--
MOLECULE: O=c1cc(C2CCCC2)oc2c1ccc1ccccc12
ASSAYED TARGET: CYP1A1 (Homo sapiens, UniProt P04798)
OBSERVED PROPERTY: activity at 0.25 h, 1 µM
ENDPOINT VALUE: 28
--
MOLECULE: O=c1cc([C@H]2CC[C@@H](O)CC2)oc2c1ccc1ccccc12
ASSAYED TARGET: CYP1A1 (Homo sapiens, UniProt P04798)
OBSERVED PROPERTY: activity at 0.25 h, 1 µM
ENDPOINT VALUE: 87.3

Challenge: Report activity at 0.25 h, 1 µM for COc1cccc(-c2cc(=O)c3ccc4ccccc4c3o2)c1 tested on CYP1A1 (Homo sapiens, UniProt P04798).
Response given: 8.7
